Target: Mu-type opioid receptor (Homo sapiens) (UniProt P35372)
Sequence (P35372 whole entry): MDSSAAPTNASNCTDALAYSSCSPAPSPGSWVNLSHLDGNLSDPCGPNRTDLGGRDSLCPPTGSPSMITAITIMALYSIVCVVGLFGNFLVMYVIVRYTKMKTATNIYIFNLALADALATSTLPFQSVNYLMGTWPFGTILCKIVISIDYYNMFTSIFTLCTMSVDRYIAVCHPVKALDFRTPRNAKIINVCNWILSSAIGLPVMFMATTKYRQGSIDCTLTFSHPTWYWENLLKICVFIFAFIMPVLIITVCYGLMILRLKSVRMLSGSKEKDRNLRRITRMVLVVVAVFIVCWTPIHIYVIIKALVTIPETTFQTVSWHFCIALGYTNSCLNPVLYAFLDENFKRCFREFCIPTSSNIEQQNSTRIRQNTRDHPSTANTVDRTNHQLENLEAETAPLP
Assay: Antagonist activity at human cloned mu opioid receptor expressed in CHO cells assessed as inhibition of DAMGO-stimulated [35S]GTPgammaS binding
Type: functional, cell-based
Label rule met when Ke is strictly below 3 nM; otherwise label rule not met.

Ask | Please state whether Ke is below 3 nM for COc1ccc2nc(C(=O)N[C@H](CN3CC[C@@](C)(c4cccc(O)c4)[C@@H](C)C3)C(C)C)[nH]c2c1
Reply | rule not met

Ask | hey, is Ke for CC(C)[C@@H](CN1CC[C@@](C)(c2cccc(O)c2)[C@@H](C)C1)NC(=O)CN1CCc2ccc(O)cc2C1 lower than 3 nM or not?
Reply | rule not met

Ask | Given CC(C)CN(CCN1CC[C@@](C)(c2cccc(O)c2)[C@@H](C)C1)C(=O)[C@H]1Cc2ccc(O)cc2CN1 , is recorded Ke strictly lower than 3 nM?
Reply | rule met

Ask | Ke under 3 nM? Item: CC(C)CCN(CCN1CC[C@@](C)(c2cccc(O)c2)[C@@H](C)C1)C(=O)[C@H]1Cc2ccc(O)cc2CN1
Reply | rule met

Ask | A record lists CC(C)[C@@H](CN1CC[C@@](C)(c2cccc(O)c2)[C@@H](C)C1)NC(=O)[C@H]1Cc2ccc(NS(C)(=O)=O)cc2CN1 . Is its Ke below 3 nM?
Reply | rule not met

Ask | Does the reported Ke of CC(C)[C@@H](CN1CC[C@@](C)(c2cccc(O)c2)[C@@H](C)C1)NC(=O)c1cnc2cc(O)ccc2c1 stay below 3 nM?
Reply | rule not met

* * *

Target: Kappa-type opioid receptor (Homo sapiens)
Assay: Antagonist activity at human cloned kappa opioid receptor expressed in CHO cells assessed as inhibition of U69593-stimulated [35S]GTP-gamma-S binding
Assay type: functional, cell-based
Please enter fulfilled where Ke is greater than or equal to 10 nM, and not fulfilled where it is lower.

Ask | Record CC[C@H](C)[C@@H](CN1CC[C@@](C)(c2cccc(O)c2)[C@@H](C)C1)NC(=O)[C@H]1Cc2ccc(O)cc2CN1 ; criterion: Ke no lower than 10 nM. Met?
Reply | not fulfilled

Ask | # bool: Ke of COc1ccc2c(c1)CCN(CC(=O)N[C@H](CN1CC[C@@](C)(c3cccc(O)c3)[C@@H](C)C1)C(C)C)C2 >= 10 nM
Reply | fulfilled

Ask | Please tell me: is the compound CC(C)CN(CCN1CC[C@@](C)(c2cccc(O)c2)[C@@H](C)C1)C(=O)[C@H]1Cc2ccc(O)cc2CN1 at or over 10 nM in terms of Ke?
Reply | not fulfilled

Ask | Is Ke for CC(C)[C@@H](CN1CC[C@@](C)(c2cccc(O)c2)[C@@H](C)C1)NC(=O)[C@H]1Cc2ccccc2CN1 at or above 10 nM?
Reply | fulfilled

Ask | # bool: Ke of CC(C)CCN(CCN1CC[C@@](C)(c2cccc(O)c2)[C@@H](C)C1)C(=O)[C@H]1Cc2ccc(O)cc2CN1 >= 10 nM
Reply | not fulfilled

Ask | Answer whether Ke of CC(C)[C@@H](CN1CC[C@@](C)(c2cccc(O)c2)[C@@H](C)C1)NC(=O)c1nc2ccc(O)cc2[nH]1 is greater than or equal to 10 nM.
Reply | fulfilled

Ask | Does the reported Ke for CC(C)[C@@H](CN1CC[C@@](C)(c2cccc(O)c2)[C@@H](C)C1)NC(=O)c1cc2ccc(O)cc2[nH]1 fall at or above the 10 nM mark?
Reply | fulfilled

Ask | Tell me whether Ke is at least 10 nM here: CC(C)[C@@H](CN1CC[C@@](C)(c2cccc(O)c2)[C@@H](C)C1)NC(=O)[C@H]1Cc2ccc(N)cc2CN1
Reply | not fulfilled

Ask | hey, is Ke for this one >= 10 nM? COc1ccc2cc(C(=O)N[C@H](CN3CC[C@@](C)(c4cccc(O)c4)[C@@H](C)C3)C(C)C)[nH]c2c1
Reply | fulfilled

Ask | Is Ke for COc1ccc2cc(C(=O)N[C@H](CN3CC[C@@](C)(c4cccc(O)c4)[C@@H](C)C3)C(C)C)cnc2c1 at or above 10 nM?
Reply | fulfilled

Ask | Does the reported Ke for COc1ccc2c(c1)CN(CC(=O)N[C@H](CN1CC[C@@](C)(c3cccc(O)c3)[C@@H](C)C1)C(C)C)CC2 fall at or above the 10 nM mark?
Reply | fulfilled

Ask | Would you say COc1ccc2c(c1)CN[C@@H](C(=O)N[C@H](CN1CC[C@@](C)(c3cccc(O)c3)[C@@H](C)C1)C(C)C)C2 shows Ke at minimum 10 nM?
Reply | not fulfilled

Ask | Hello, I need to know if CC(C)[C@@H](CN1CC[C@@](C)(c2cccc(O)c2)[C@@H](C)C1)NC(=O)[C@H]1Cc2ccc(NS(C)(=O)=O)cc2CN1 has measured Ke not below 10 nM. Thanks!
Reply | not fulfilled

Ask | Please check the record CC(C)[C@@H](CN1CC[C@@](C)(c2cccc(O)c2)[C@@H](C)C1)NC(=O)CN1CCc2cc(O)ccc2C1 and state if its Ke is at or above 10 nM.
Reply | not fulfilled

Ask | Hello, I need to know if COc1ccc2nc(C(=O)N[C@H](CN3CC[C@@](C)(c4cccc(O)c4)[C@@H](C)C3)C(C)C)[nH]c2c1 has measured Ke not below 10 nM. Thanks!
Reply | fulfilled

Ask | Please indicate if the recorded Ke for CC(=O)Nc1ccc2c(c1)CN[C@@H](C(=O)N[C@H](CN1CC[C@@](C)(c3cccc(O)c3)[C@@H](C)C1)C(C)C)C2 meets or exceeds 10 nM.
Reply | not fulfilled

Ask | Given the entry CC(C)[C@@H](CN1CC[C@@](C)(c2cccc(O)c2)[C@@H](C)C1)NC(=O)[C@H]1Cc2ccc([N+](=O)[O-])cc2CN1 , answer whether its Ke meets or surpasses 10 nM.
Reply | not fulfilled

Ask | Item CC(C)[C@@H](CN1CC[C@@](C)(c2cccc(O)c2)[C@@H](C)C1)NC(=O)c1cnc2cc(O)ccc2c1 with Ke of 10 nM or above?
Reply | not fulfilled

Ask | Is reported Ke greater than or equal to 10 nM here: CC(C)[C@@H](CN1CC[C@@](C)(c2cccc(O)c2)[C@@H](C)C1)NC(=O)c1c[nH]c2cc(O)ccc12
Reply | not fulfilled

Ask | Does Ke meet or surpass 10 nM for CC(C)[C@@H](CN1CC[C@@](C)(c2cccc(O)c2)[C@@H](C)C1)NC(=O)CN1CCc2ccc(O)cc2C1 ?
Reply | fulfilled

* * *

So I've got a bunch of molecules here, and I need their Ke values.
Target: Delta-type opioid receptor (Homo sapiens) (UniProt P41143)
Sequence (P41143 whole entry): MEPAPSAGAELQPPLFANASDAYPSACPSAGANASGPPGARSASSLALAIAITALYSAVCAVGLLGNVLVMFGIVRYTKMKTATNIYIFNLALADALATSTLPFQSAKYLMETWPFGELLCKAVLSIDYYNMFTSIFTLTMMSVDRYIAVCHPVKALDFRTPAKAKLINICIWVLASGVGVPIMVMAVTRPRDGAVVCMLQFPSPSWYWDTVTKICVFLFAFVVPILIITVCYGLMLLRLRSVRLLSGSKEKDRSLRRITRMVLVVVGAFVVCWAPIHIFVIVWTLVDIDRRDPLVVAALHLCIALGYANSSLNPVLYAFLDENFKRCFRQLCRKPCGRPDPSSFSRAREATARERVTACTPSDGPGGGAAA
Experiment: Antagonist activity at human cloned delta opioid receptor expressed in CHO cells assessed as inhibition of DPDPE-stimulated [35S]GTP-gamma-S binding
Format: functional, cell-based
Give the value in nM but do not write nM after it.

Ask | What does the data say about its Ke? Entry: CC(C)[C@@H](CN1CC[C@@](C)(c2cccc(O)c2)[C@@H](C)C1)NC(=O)[C@H]1Cc2ccc(NS(C)(=O)=O)cc2CN1
Reply | 106

Ask | Fill in the blank: the reported Ke of COc1ccc2c(c1)CCN(CC(=O)N[C@H](CN1CC[C@@](C)(c3cccc(O)c3)[C@@H](C)C1)C(C)C)C2 is ____.
Reply | 76

Ask | Please report the recorded Ke for CC(C)[C@@H](CN1CC[C@@](C)(c2cccc(O)c2)[C@@H](C)C1)NC(=O)CN1CCc2cc(O)ccc2C1 .
Reply | 408

Ask | Which Ke value is on record for COc1ccc2nc(C(=O)N[C@H](CN3CC[C@@](C)(c4cccc(O)c4)[C@@H](C)C3)C(C)C)[nH]c2c1 ?
Reply | 102

Ask | Given the entry CC[C@H](C)[C@@H](CN1CC[C@@](C)(c2cccc(O)c2)[C@@H](C)C1)NC(=O)[C@H]1Cc2ccc(O)cc2CN1 , report its measured Ke.
Reply | 24

Ask | What Ke value was documented for this molecule, CC(C)[C@@H](CN1CC[C@@](C)(c2cccc(O)c2)[C@@H](C)C1)NC(=O)[C@H]1Cc2ccc([N+](=O)[O-])cc2CN1 ?
Reply | 65

Ask | # query: Ke of entry CC(C)CN(CCN1CC[C@@](C)(c2cccc(O)c2)[C@@H](C)C1)C(=O)[C@H]1Cc2ccc(O)cc2CN1
Reply | 39

* * *

System: CHO
Experiment: Selectivity for human cloned kappa opioid receptor over human cloned delta opioid receptor expressed in CHO cells
Assay type: cell-based
readoutKind: Ratio Ke

Ask | GET /values?readout=Ratio Ke&item= CC(C)[C@@H](CN1CC[C@@](C)(c2cccc(O)c2)[C@@H](C)C1)NC(=O)[C@H]1Cc2ccc(NS(C)(=O)=O)cc2CN1
Reply | 27

Ask | Reported Ratio Ke, compound COc1ccc2c(c1)CCN(CC(=O)N[C@H](CN1CC[C@@](C)(c3cccc(O)c3)[C@@H](C)C1)C(C)C)C2 : ____
Reply | 3

Ask | Look up Ratio Ke for this compound: COc1ccc2cc(C(=O)N[C@H](CN3CC[C@@](C)(c4cccc(O)c4)[C@@H](C)C3)C(C)C)[nH]c2c1
Reply | 26

Ask | What value of Ratio Ke has been reported for the following compound? CC(C)[C@@H](CN1CC[C@@](C)(c2cccc(O)c2)[C@@H](C)C1)NC(=O)[C@H]1Cc2ccc(N)cc2CN1
Reply | 1860

Ask | Data request, read-out Ratio Ke, for CC(C)[C@@H](CN1CC[C@@](C)(c2cccc(O)c2)[C@@H](C)C1)NC(=O)c1cnc2cc(O)ccc2c1
Reply | 25

Ask | # query: Ratio Ke of entry COc1ccc2c(c1)CN[C@@H](C(=O)N[C@H](CN1CC[C@@](C)(c3cccc(O)c3)[C@@H](C)C1)C(C)C)C2
Reply | 1980

Ask | For the compound COc1ccc2c(c1)CN(CC(=O)N[C@H](CN1CC[C@@](C)(c3cccc(O)c3)[C@@H](C)C1)C(C)C)CC2 , what Ratio Ke is on record?
Reply | 3

Ask | Which value of Ratio Ke has been reported for CC(C)[C@@H](CN1CC[C@@](C)(c2cccc(O)c2)[C@@H](C)C1)NC(=O)CN1CCc2cc(O)ccc2C1 in the records?
Reply | 105

Ask | Bench note: what Ratio Ke did CC(C)CN(CCN1CC[C@@](C)(c2cccc(O)c2)[C@@H](C)C1)C(=O)[C@H]1Cc2ccc(O)cc2CN1 show?
Reply | 21

Ask | Please give the measured Ratio Ke for this compound: CC(C)[C@@H](CN1CC[C@@](C)(c2cccc(O)c2)[C@@H](C)C1)NC(=O)[C@H]1Cc2ccc([N+](=O)[O-])cc2CN1
Reply | 10

Ask | Given the entry CC(C)[C@@H](CN1CC[C@@](C)(c2cccc(O)c2)[C@@H](C)C1)NC(=O)c1c[nH]c2cc(O)ccc12 , report its measured Ratio Ke.
Reply | 50

Ask | Can you look up the measured Ratio Ke of CC(C)[C@@H](CN1CC[C@@](C)(c2cccc(O)c2)[C@@H](C)C1)NC(=O)[C@H]1Cc2ccc(O)cc2CN1 for me?
Reply | 3800

Ask | What does the data say about its Ratio Ke? Entry: CC(C)[C@@H](CN1CC[C@@](C)(c2cccc(O)c2)[C@@H](C)C1)NC(=O)c1nc2ccc(O)cc2[nH]1
Reply | 13
